target: UniProt:P22303
Sequence (P22303 whole entry): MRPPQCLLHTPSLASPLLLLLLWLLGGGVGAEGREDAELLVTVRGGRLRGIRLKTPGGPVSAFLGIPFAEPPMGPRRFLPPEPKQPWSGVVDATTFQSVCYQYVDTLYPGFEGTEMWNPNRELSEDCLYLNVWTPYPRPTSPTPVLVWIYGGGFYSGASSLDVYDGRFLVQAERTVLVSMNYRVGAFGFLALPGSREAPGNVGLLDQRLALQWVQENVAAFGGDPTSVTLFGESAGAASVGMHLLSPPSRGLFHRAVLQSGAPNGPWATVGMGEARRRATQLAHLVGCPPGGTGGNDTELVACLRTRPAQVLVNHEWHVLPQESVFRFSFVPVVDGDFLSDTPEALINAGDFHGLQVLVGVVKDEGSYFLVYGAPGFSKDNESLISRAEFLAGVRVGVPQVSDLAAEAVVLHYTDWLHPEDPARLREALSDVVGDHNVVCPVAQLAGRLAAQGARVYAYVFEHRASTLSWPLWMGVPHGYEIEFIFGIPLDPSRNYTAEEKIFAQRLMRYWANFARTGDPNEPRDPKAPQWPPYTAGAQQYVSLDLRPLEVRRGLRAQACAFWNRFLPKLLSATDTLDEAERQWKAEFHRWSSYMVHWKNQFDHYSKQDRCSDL
measure name: IC50

Worked set:
> print(dat)
                                   molecule  readout.value
1  Cc1ccc(/C=C2\CN(Cc3ccc4ccccc4c3)C/C(=C\c3ccc(C)cc3)C2=O)cc1        1590 nM
2  Cc1ccc(C=C2CNCC3=C2N=C2SC=C(c4ccc(Br)cc4)N2C3c2ccc(C)cc2)cc1 (centres undefined)        2270 nM
3  Cc1ccc(C=C2CNCC3=C2N=C2SC=C(c4ccc5ccccc5c4)N2C3c2ccc(C)cc2)cc1 (centres undefined)         980 nM

// switching to the query molecule
*Q* For UniProt:P22303, give the measured IC50 of the entry Brc1ccc(C=C2CNCC3=C2N=C2SC=C(c4ccc5ccccc5c4)N2C3c2ccc(Br)cc2)cc1 (centres undefined)
*A* 730 nM
